Give melting point for every item shown.

Using the record for O=S(=O)(c1ccc(Cl)cc1)C(c1cc(F)ccc1F)C1CCSCC1 (centres unmarked) , report its melting point.
150 to 152 °C

And then CS(=O)(=O)CCCCC(c1ccccc1F)S(=O)(=O)c1ccc(Cl)cc1 (centres unmarked) , what is it?
167 to 168 °C

Now consider Cc1ccc(C(c2cc(F)ccc2F)S(=O)(=O)c2ccc(Cl)cc2)nc1 (centres unmarked) .
159 to 160 °C

And for O=S(=O)(c1ccc(Cl)cc1)C(Sc1ccccc1)c1cc(F)ccc1F (centres unmarked) ?
84 to 85 °C

Also need "CCCC=C(c1cc(F)ccc1F)S(=O)(=O)c1ccc(Cl)cc1" , thanks.
95.5 to 97 °C

Same thing, different molecule: CS(=O)(=O)NCCCC(c1cc(F)ccc1F)S(=O)(=O)c1ccc(Cl)cc1 (centres unmarked)
128 °C

Cool, now "O=C(OC(=C(c1cc(F)ccc1F)S(=O)(=O)c1ccc(Cl)cc1)c1ccccc1)c1ccccc1"
224.5 to 227 °C

Param item: CS(=O)(=O)CCCCC(c1cc(Cl)ccc1F)S(=O)(=O)c1ccc(Cl)cc1 (centres unmarked)
116 to 117 °C

Lookup "Cl.O=S(=O)(c1ccc(Cl)cc1)C1(c2cc(F)ccc2F)CCNCC1"
239 to 246 °C (dec.)

// next record CS(=O)(=O)CCCCC(C1CCCCC1)S(=O)(=O)c1ccc(Cl)cc1 (centres unmarked)
104 to 106 °C

O=C(CC(c1cc(F)ccc1F)S(=O)(=O)c1ccc(Cl)cc1)N1CCCC1 (centres unmarked) ?
122 to 125 °C
